From: ChEMBL document CHEMBL1144146

Test system: Bacillus subtilis
Assay: Antimicrobial activity against Bacillus subtilis after 48 hrs by agar plate dilution method
Format: functional
Provide the reported MIC of each item.
Write the answer as a number in µg/mL, unit excluded.

Ask | Quick check: MIC of C=C(C)C(CC=C(C)C)Cc1c(O)cc(O)c2c1O[C@H](c1ccc(O)cc1O)[C@@H](O)C2=O (stereo partly specified) ?
Reply | 10

Ask | Quick check: MIC of C=C(C)C(CC=C(C)C)Cc1c(O)cc(OC)c2c1O[C@H](c1ccc(O)cc1O)CC2=O (stereo partly specified) ?
Reply | 2.5

Ask | Quick check: MIC of C=C(C)C(CC=C(C)C)Cc1c(O)cc(O)c2c1O[C@H](c1ccc(O)cc1O)CC2=O (stereo partly specified) ?
Reply | 2.5

Ask | Quick check: MIC of C=C(C)C(CC=C(C)C)Cc1c(O)cc(OC)c2c1O[C@H](c1ccc(O)cc1)CC2=O (stereo partly specified) ?
Reply | 10

Ask | Quick check: MIC of C=C(C)C(CC=C(C)C)Cc1c(O)cc(OC)c2c1O[C@H](c1ccc(O)cc1OC)CC2=O (stereo partly specified) ?
Reply | 2.5

Ask | Quick check: MIC of CC(C)=CCC(Cc1c(O)cc(O)c2c1O[C@H](c1ccc(O)cc1O)CC2=O)C(C)CO (stereo partly specified) ?
Reply | 5
